Source of measurements: patent US20240043405A1

molecular target: IRAK1 (Homo sapiens (Human), UniProt P51617); assay: Adapta Universal Kinase Assay (ThermoFisher) against IRAK1; type: biochemical; details: IRAK1/Histone H3 (1-20) peptide, 60 minutes at room temperature
Sequence (P51617 whole entry): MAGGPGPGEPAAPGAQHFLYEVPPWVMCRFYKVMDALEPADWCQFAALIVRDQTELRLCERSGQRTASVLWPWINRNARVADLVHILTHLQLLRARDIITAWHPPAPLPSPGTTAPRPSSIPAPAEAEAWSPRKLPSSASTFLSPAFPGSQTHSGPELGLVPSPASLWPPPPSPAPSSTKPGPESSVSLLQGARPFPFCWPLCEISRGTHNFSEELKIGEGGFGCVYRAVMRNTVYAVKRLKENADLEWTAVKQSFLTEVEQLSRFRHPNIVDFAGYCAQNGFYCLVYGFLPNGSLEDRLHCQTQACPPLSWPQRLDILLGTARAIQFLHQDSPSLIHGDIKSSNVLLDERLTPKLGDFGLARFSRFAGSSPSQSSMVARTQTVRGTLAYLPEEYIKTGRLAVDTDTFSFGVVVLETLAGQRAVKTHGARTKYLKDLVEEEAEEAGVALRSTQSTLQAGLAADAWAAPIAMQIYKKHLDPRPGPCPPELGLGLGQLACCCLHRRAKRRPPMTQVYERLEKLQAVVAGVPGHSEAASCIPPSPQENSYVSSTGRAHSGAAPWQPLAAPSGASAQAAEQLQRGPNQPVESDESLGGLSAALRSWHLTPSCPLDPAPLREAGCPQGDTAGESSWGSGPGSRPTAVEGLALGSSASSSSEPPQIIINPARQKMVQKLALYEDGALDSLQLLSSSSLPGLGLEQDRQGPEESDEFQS
pIC50: −log10 of the molar value.
Quick reference: pIC50 of the listed items.

- compound: "C=CC(=O)N[C@@H]1CNCC(C(=O)Nc2ccc(NC(=O)c3cccc(-c4ccn[nH]4)n3)cc2F)C1 (stereo partly shown)"
  pIC50: 6.82
- compound: "C=CC(=O)N[C@@H]1CCC[C@H](C(=O)Nc2ccc(NC(=O)c3cccc(-c4ccn[nH]4)n3)cc2)C1"
  pIC50: 7.17
- compound: "C=CC(=O)N1CCC[C@H](C(=O)Nc2ccc(NC(=O)c3cccc(-c4ccn[nH]4)n3)nc2)C1"
  pIC50: 8.20
- compound: "C=CC(=O)N[C@@H]1CCCC(C(=O)Nc2ccc(NC(=O)c3cccc(-c4ccn[nH]4)n3)cc2C)C1 (stereo partly shown)"
  pIC50: 6.17
- compound: "C=CC(=O)N1CCC[C@@H](C(=O)Nc2ccc(NC(=O)c3cccc(-c4cnoc4)n3)cc2F)C1"
  pIC50: 6.46
- compound: "C=CC(=O)N[C@@H]1CNC[C@H](C(=O)Nc2ccc(NC(=O)c3cccc(-c4ccn[nH]4)n3)nc2)C1"
  pIC50: 7.85
- compound: "C=CC(=O)N[C@H]1C[C@@H](C(=O)Nc2ccc(NC(=O)c3cccc(-c4ccn[nH]4)n3)nc2)CN(CC(F)F)C1"
  pIC50: 7.83

---

Quick reference: IC50 of the listed items.
target: IRAK1 (Homo sapiens (Human), UniProt P51617)

- compound: "C=CC(=O)N[C@H]1C[C@@H](C(=O)Nc2ccc(NC(=O)c3cccc(-c4ccn[nH]4)n3)nc2)CN(CC(F)(F)F)C1"
  resultUnits: "nM"
  IC50: 12.1
- compound: "C=CC(=O)N[C@@H]1CCCC(C(=O)Nc2ccc(NC(=O)c3cccc(-c4ccn[nH]4)n3)cc2F)C1 (stereo partly shown)"
  resultUnits: "nM"
  IC50: 129
- compound: "C=CC(=O)N1CCC[C@H](C(=O)Nc2ccc(NC(=O)c3cccc(-c4ccn[nH]4)n3)cc2F)C1"
  resultUnits: "nM"
  IC50: 40.1
- compound: "C=CC(=O)N1CCC[C@H](C(=O)Nc2ccc(NC(=O)c3cccc(-c4cnoc4)n3)cc2F)C1"
  resultUnits: "nM"
  IC50: 1190

---

// UniProt Q9NWZ3 pIC50 records
Sequence (Q9NWZ3 whole entry): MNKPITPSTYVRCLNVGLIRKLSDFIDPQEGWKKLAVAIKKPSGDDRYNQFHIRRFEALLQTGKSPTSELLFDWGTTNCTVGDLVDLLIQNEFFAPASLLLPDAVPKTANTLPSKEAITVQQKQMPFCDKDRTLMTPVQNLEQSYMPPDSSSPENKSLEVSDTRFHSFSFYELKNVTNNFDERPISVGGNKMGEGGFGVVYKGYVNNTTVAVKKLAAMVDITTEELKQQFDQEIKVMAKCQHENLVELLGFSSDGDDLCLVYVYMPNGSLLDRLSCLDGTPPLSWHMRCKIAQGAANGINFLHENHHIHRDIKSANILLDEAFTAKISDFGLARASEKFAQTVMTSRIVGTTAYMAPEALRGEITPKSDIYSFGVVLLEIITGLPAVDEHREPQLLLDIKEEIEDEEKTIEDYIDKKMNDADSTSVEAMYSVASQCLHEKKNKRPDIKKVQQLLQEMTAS
pIC50: −log10 of the molar value.
reportedMetric: pIC50

- compound: "C=CC(=O)N[C@H]1C[C@@H](C(=O)Nc2ccc(NC(=O)c3cccc(-c4ccn[nH]4)n3)nc2)CN(CC(F)(F)F)C1 [Compound 038]"
  reportedMetric: "pIC50"
  qualifyingSign: "<"
  readoutValue: 5.00
- compound: "C=CC(=O)N[C@@H]1CCCC(C(=O)Nc2ccc(NC(=O)c3cccc(-c4ccn[nH]4)n3)cc2C)C1 (some centres unmarked) [Compound 003]"
  reportedMetric: "pIC50"
  qualifyingSign: "<"
  readoutValue: 5.00
- compound: "C=CC(=O)N1CCC[C@@H](C(=O)Nc2ccc(NC(=O)c3cccc(-c4ccn[nH]4)n3)cc2F)C1 [Compound 033]"
  reportedMetric: "pIC50"
  qualifyingSign: "="
  readoutValue: 5.60
- compound: "C=CC(=O)NC12CC(C(=O)Nc3ccc(NC(=O)c4cccc(-c5ccn[nH]5)n4)cc3F)(C1)C2 [Compound 016]"
  reportedMetric: "pIC50"
  qualifyingSign: "="
  readoutValue: 5.00
- compound: "C=CC(=O)N1CCC[C@H](C(=O)Nc2ccc(NC(=O)c3cccc(-c4cnoc4)n3)cc2F)C1 [Compound 032]"
  reportedMetric: "pIC50"
  qualifyingSign: "<"
  readoutValue: 5.00
- compound: "C=CC(=O)N1CCC[C@@H](C(=O)Nc2ccc(NC(=O)c3cccc(-c4cnoc4)n3)cc2F)C1 [Compound 034]"
  reportedMetric: "pIC50"
  qualifyingSign: "="
  readoutValue: 5.70
- compound: "C=CC(=O)N[C@H]1C[C@@H](C(=O)Nc2ccc(NC(=O)c3cccc(-c4ccn[nH]4)n3)nc2)CN(CC(F)F)C1 [Compound 039]"
  reportedMetric: "pIC50"
  qualifyingSign: "<"
  readoutValue: 5.00
- compound: "C=CC(=O)N[C@@H]1CNC[C@H](C(=O)Nc2ccc(NC(=O)c3cccc(-c4ccn[nH]4)n3)nc2)C1 [Compound 006]"
  reportedMetric: "pIC50"
  qualifyingSign: "="
  readoutValue: 5.40
- compound: "C=CC(=O)N[C@@H]1CCC[C@H](C(=O)Nc2ccc(NC(=O)c3cccc(-c4ccn[nH]4)n3)nc2)C1 [Compound 002]"
  reportedMetric: "pIC50"
  qualifyingSign: "<"
  readoutValue: 5.00
- compound: "C=CC(=O)N[C@@H]1CNCC(C(=O)Nc2ccc(NC(=O)c3cccc(-c4ccn[nH]4)n3)cc2F)C1 (some centres unmarked) [Compound 007]"
  reportedMetric: "pIC50"
  qualifyingSign: "<"
  readoutValue: 5.00
- compound: "C=CC(=O)N1CCC[C@@H](C(=O)Nc2ccc(NC(=O)c3cccc(-c4ccn[nH]4)n3)nc2)C1 [Compound 028]"
  reportedMetric: "pIC50"
  qualifyingSign: "="
  readoutValue: 6.14
- compound: "C=CC(=O)N[C@H]1CCCC(C(=O)Nc2ccc(NC(=O)c3cccc(-c4ccn[nH]4)n3)nc2)C1 (some centres unmarked) [Compound 005]"
  reportedMetric: "pIC50"
  qualifyingSign: "<"
  readoutValue: 5.00
- compound: "C=CC(=O)N1CCC[C@H](C(=O)Nc2ccc(NC(=O)c3cccc(-c4ccn[nH]4)n3)cc2F)C1 [Compound 031]"
  reportedMetric: "pIC50"
  qualifyingSign: "="
  readoutValue: 5.95
- compound: "C=CC(=O)N1CCC[C@H](C(=O)Nc2ccc(NC(=O)c3cccc(-c4ccn[nH]4)n3)nc2)C1 [Compound 027]"
  reportedMetric: "pIC50"
  qualifyingSign: "="
  readoutValue: 5.73
